This collection of values is drawn from ChEMBL document CHEMBL3286351.

# Measurement Description: Stability in human plasma assessed as compound degradation after 2 hrs by RP-HPLC analysis
# Format: ADME, cell-free
# Condition Description: read-out: Drug degradation
Where a SMILES comes first, the peptide text is derived from it. [ ]: non-standard residue; d: D form. 3Abz = Nc1cccc(C(=O)O)c1
Readout Kind: metabolised at 2 h (%)
One number for each entry, in %.

Request: For the compound shown here, N=C(N)NCCCC(NC(=O)C(Cc1c[nH]c2ccccc12)NC(=O)c1cccc(NC(=O)C(Cc2c[nH]c3ccccc23)NC(=O)C(CCCNC(=N)N)NC(=O)C(N)Cc2c[nH]c3ccccc23)c1)C(N)=O (stereo unspecified) (H-WRW[3Abz]WR-NH2; configuration not given here) , give the reported metabolised at 2 h.
Response: 6.58

* * *

# System: Pseudomonas aeruginosa
# Measurement Description: Antibacterial activity against Pseudomonas aeruginosa MTCC 2295 assessed as growth inhibition after 18 hrs by CLSI microdilution broth assay
# Assay type: functional
# Condition Description: MTCC 2295, 18 h
Where a SMILES comes first, the peptide text is derived from it. [ ]: non-standard residue; d: D form. 3Abz = Nc1cccc(C(=O)O)c1; Orn = NCCC[CH](N)C(=O)O
// NB: equality with 100 µg/mL counts as label 0; only MIC strictly below is label 1

Below, 4 molecules whose answers are already recorded.
molecule="N=C(N)NCCCC(NC(=O)c1cccc(NC(=O)C(CCCNC(=N)N)NC(=O)C(N)Cc2c[nH]c3ccccc23)c1)C(N)=O (centres undefined) (H-WR[3Abz]R-NH2; configuration not given here)" target_system="Pseudomonas aeruginosa" class="label 0"
molecule="N=C(N)NCCCC(NC(=O)C(CCCNC(=N)N)NC(=O)c1cccc(NC(=O)C(CCCNC(=N)N)NC(=O)C(N)Cc2c[nH]c3ccccc23)c1)C(N)=O (centres undefined) (H-WR[3Abz]RR-NH2; configuration not given here)" target_system="Pseudomonas aeruginosa" class="label 0"
molecule="NCCCC(N)C(=O)NC(CCCN)C(=O)NC(Cc1c[nH]c2ccccc12)C(=O)NC(Cc1c[nH]c2ccccc12)C(=O)NC(CCCN)C(N)=O (centres undefined) (H-[Orn][Orn]WW[Orn]-NH2; configuration not given here)" target_system="Pseudomonas aeruginosa" class="label 0"
molecule="NCCCC(NC(=O)C(Cc1c[nH]c2ccccc12)NC(=O)C(Cc1c[nH]c2ccccc12)NC(=O)C(CCCN)NC(=O)C(N)Cc1c[nH]c2ccccc12)C(N)=O (centres undefined) (H-W[Orn]WW[Orn]-NH2; configuration not given here)" target_system="Pseudomonas aeruginosa" class="label 0"

Request: Hello, is MIC of the following molecule strictly smaller than 100 µg/mL? N=C(N)NCCCC(NC(=O)C(CCCNC(=N)N)NC(=O)c1cccc(NC(=O)C(Cc2c[nH]c3ccccc23)NC(=O)C(N)Cc2c[nH]c3ccccc23)c1)C(N)=O (centres undefined) (H-WW[3Abz]RR-NH2; configuration not given here)
Response: label 0

Request: Again, but for NCCCC(N)C(=O)NC(Cc1c[nH]c2ccccc12)C(=O)Nc1cccc(C(=O)NC(Cc2c[nH]c3ccccc23)C(=O)NC(CCCN)C(N)=O)c1 (centres undefined) (H-[Orn]W[3Abz]W[Orn]-NH2; configuration not given here)
Response: label 1

Request: How about NCCCC(NC(=O)C(CCCN)NC(=O)c1cccc(NC(=O)C(Cc2c[nH]c3ccccc23)NC(=O)C(CCCN)NC(=O)C(N)Cc2c[nH]c3ccccc23)c1)C(N)=O (centres undefined) (H-W[Orn]W[3Abz][Orn][Orn]-NH2; configuration not given here) ?
Response: label 1

Request: Follow-up item: N=C(N)NCCCC(NC(=O)C(CCCNC(=N)N)NC(=O)c1cccc(NC(=O)C(Cc2c[nH]c3ccccc23)NC(=O)C(CCCNC(=N)N)NC(=O)C(N)Cc2c[nH]c3ccccc23)c1)C(N)=O (centres undefined) (H-WRW[3Abz]RR-NH2; configuration not given here)
Response: label 1

Request: Ok, now N=C(N)NCCCC(NC(=O)c1cccc(NC(=O)C(N)Cc2c[nH]c3ccccc23)c1)C(N)=O (centres undefined)
Response: label 0
